Parameter: pKi. Scope: all listed entries.
Target: 3-phosphoshikimate 1-carboxyvinyltransferase (Escherichia coli K-12, UniProt P0A6D3)
Experiment: Inhibition of Escherichia coli EPSP synthase
Here pKi is given on a logarithmic scale as minus log10 of the concentration in mol/L.

{"Molecule": "O=C(O)CO[C@@H]1CC(C(=O)O)=C[C@@H](OP(=O)(O)O)[C@@H]1O", "pKi": 5.82}

Turning to the following molecule.
# input molecule: O=C(O)c1cc(OC(C(=O)O)P(=O)(O)O)cc(OP(=O)(O)O)c1 (configuration not stated) ; wanted: its pKi
6.80

---

Target: 3-phosphoshikimate 1-carboxyvinyltransferase (Escherichia coli K-12, UniProt P0A6D3)
Sequence (P0A6D3 whole entry): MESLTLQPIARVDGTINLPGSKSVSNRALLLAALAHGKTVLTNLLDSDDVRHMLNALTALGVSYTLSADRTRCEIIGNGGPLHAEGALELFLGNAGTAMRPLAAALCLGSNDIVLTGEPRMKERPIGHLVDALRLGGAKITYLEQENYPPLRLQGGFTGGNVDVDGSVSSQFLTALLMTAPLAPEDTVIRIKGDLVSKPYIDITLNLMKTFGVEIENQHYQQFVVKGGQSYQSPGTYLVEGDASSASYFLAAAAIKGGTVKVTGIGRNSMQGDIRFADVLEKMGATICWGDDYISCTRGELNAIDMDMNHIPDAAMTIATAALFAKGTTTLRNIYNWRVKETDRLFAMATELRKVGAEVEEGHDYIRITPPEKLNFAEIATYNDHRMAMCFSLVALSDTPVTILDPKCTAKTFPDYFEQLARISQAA
Endpoint Name: pIC50
Here pIC50 is given on a logarithmic scale as minus log10 of the concentration in mol/L.

{"Compound": "O=C(O)c1cc(O)cc(C(O)P(=O)(O)O)c1 (stereo not drawn)", "Measured Number": 2.00}
{"Compound": "O=C(O)COc1cc(OP(=O)(O)O)cc(C(=O)O)c1", "Measured Number": 2.85}
{"Compound": "O=C(O)COc1cc(OC(C(=O)O)C(=O)O)cc(C(=O)O)c1", "Measured Number": 2.70}
{"Compound": "O=C(O)CO[C@@H]1CC(C(=O)O)=C[C@@H](OP(=O)(O)O)[C@@H]1O", "Measured Number": 4.00}
{"Compound": "O=C(O)COc1cc(C(=O)O)cc(C(O)P(=O)(O)O)c1 (stereo not drawn)", "Measured Number": 2.52}

# input compound: O=C(O)c1cc(CP(=O)(O)O)cc(CP(=O)(O)O)c1 ; wanted: its pIC50
2.52

# input compound: O=C(O)c1cc(O)cc(OP(=O)(O)O)c1 ; wanted: its pIC50
2.10
